Values from BindingDB's records for doi:10.1016/j.bmcl.2012.03.099

MEASURED TARGET: Mitogen-activated protein kinase 14 (Homo sapiens) (UniProt Q16539)
Sequence (Q16539 whole entry, looked up): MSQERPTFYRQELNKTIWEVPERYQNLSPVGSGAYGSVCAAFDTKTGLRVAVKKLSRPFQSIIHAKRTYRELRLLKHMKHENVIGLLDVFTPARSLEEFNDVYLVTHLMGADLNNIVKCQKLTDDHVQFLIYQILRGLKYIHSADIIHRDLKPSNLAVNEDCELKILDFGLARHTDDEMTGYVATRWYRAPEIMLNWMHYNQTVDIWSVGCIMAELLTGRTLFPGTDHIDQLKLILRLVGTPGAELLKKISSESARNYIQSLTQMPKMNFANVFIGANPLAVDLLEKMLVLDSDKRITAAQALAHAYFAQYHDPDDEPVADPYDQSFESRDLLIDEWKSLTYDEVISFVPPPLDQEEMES
ASSAY SUMMARY: Inhibition of p38alpha
Please respond with reported log10 of IC50 for every item in the list.
Transform log10 | Measure IC50 | Unit µM

Use the examples below as a reference point.
* COC(C)c1nnc2cc(-c3cc(C(=O)NC4CC4)cc(F)c3C)ccn12 (stereo unspecified) | -1.74
* Cc1c(F)cc(C(=O)NC2CC2)cc1-c1ccn2c(C(C)C)nnc2c1 | -2.52
* Cc1c(F)cc(C(=O)NC2CC2)cc1-c1ccn2c(-c3ccccc3Cl)nnc2c1 | -2.80

# batch: return log10 of IC50 for each of the 3 molecules below
1. Cc1c(F)cc(C(=O)NC2CC2)cc1-c1ccn2c(C(C)(C)N(C)C)nnc2c1
2. Cc1ccc(C(=O)NC2CC2)cc1-c1c(F)cn2c(C(C)(C)C)nnc2c1F
3. Cc1c(F)cc(C(=O)NC2CC2)cc1-c1c(F)cn2c(C3CC3)nnc2c1F

-- reply
[-2.77, -1.31, -2.00]

----------
MEASURED TARGET: Mitogen-activated protein kinase 14 (Homo sapiens)
ASSAY SUMMARY: Inhibition of p38alpha
MEASUREMENT KIND: IC50 (µM)
Give bare numbers, in µM.

The following compounds have reported results that may help.
- Cc1ccc(C(=O)NC2CC2)cc1-c1ccn2c(-c3ccccc3Cl)nnc2c1: 0.0063
- Cc1c(F)cc(C(=O)NC2CC2)cc1-c1ccn2c(C3(C)CC3)nnc2c1: 0.00064
- Cc1c(F)cc(C(=O)NC2CC2)cc1-c1ccn2c(C(F)(F)F)nnc2c1: 0.085
- COC(C)c1nnc2cc(-c3cc(C(=O)NC4CC4)ccc3C)ccn12 (stereo not given): 0.043
- Cc1ccc(C(=O)NC2CC2)cc1-c1ccc2c(N3CCCCC3)noc2c1: 0.014

For every record below, what is its IC50?
1. Cc1c(F)cc(C(=O)NC2CC2)cc1-c1c(F)cn2c(C(C)(C)N)nnc2c1F
2. Cc1ccc(C(=O)NC2CC2)cc1-c1ccn2c(C3CCC3)nnc2c1
3. Cc1c(F)cc(C(=O)NC2CC2)cc1-c1ccn2c(C(C)(C)O)nnc2c1

-- reply
0.012
0.02
0.0031

----------
MEASURED TARGET: Mitogen-activated protein kinase 14 (Homo sapiens)
ASSAY SUMMARY: Inhibition of p38alpha
MEASUREMENT KIND: log10 IC50 (log10 of the value in nM)
Units before log transform: nM; reported quantity: IC50; transform: log10.

For orientation, consider the following solved cases.
* Cc1c(F)cc(C(=O)NC2CC2)cc1-c1ccn2c(C(C)(C)C)nnc2c1 | 0.30
* Cc1c(F)cc(C(=O)NC2CC2)cc1-c1ccn2c(C3CC3)nnc2c1 | 0.83
* Cc1c(F)cc(C(=O)NC2CC2)cc1-c1c(F)cn2c(-c3ccncc3Cl)nnc2c1F | 1.36
* Cc1ccc(C(=O)NC2CC2)cc1-c1ccn2c(C3CCOCC3)nnc2c1 | 1.75
* Cc1c(F)cc(C(=O)NC2CC2)cc1-c1c(F)cn2c(C(C)C)nnc2c1F | 0.83

For every item below, please supply its log10 IC50.
1. COC(C)(C)c1nnc2cc(-c3cc(C(=O)NC4CC4)cc(F)c3C)ccn12
2. Cc1c(F)cc(C(=O)NC2CC2)cc1-c1ccn2c(C(C)(C)N)nnc2c1

-- reply
1: 0.97; 2: 1.19
